# protocol text: chemical genetic growth profiling, strain panel (AID 1159580);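 note: tested at 20 µM; growth read once vehicle control cultures reached saturation at 30 °C; 1 = growth at the plate median or of vehicle wells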
# condition details: S. cerevisiae deletion strains, growth OD, locus YFR010W, strain ubp6
Screen size: about 5,500 compounds; about 2,000 (36%) were called active. Roughly 18% stayed inconclusive and do not appear here. Cut-off read from the data, not from the text of the source: active = normalized growth mostly below about 0.91 (no sharp cut-off); inconclusive = no clear call, values can overlap the other calls; inactive = mostly above about 0.92. Some of the results follow.
Outcomes: active, inactive

compound=CCOc1cccc(C(=O)c2ccc(O)c(O)c2O)c1 category=active
compound=Cc1ccc(N(CC2=NCCN2)c2cccc(O)c2)cc1 category=inactive
compound="C=C(C)[C@@H]1CC[C@]2(CO)CC[C@]3(C)[C@H](CCC4[C@@]5(C)CC[C@H](O)C(C)(C)C5CC[C@]43C)C12 (some centres not stated)" category=inactive
compound=CNS(=O)(=O)c1ccc(NC(=O)c2ccccc2C(=O)O)cc1 category=inactive
compound="Cc1onc(-c2ccccc2)c1C(=O)NC1C(=O)N2[C@@H]1SC(C)(C)[C@@H]2C(=O)O (some centres not stated)" category=inactive
compound=CC1(C)S[C@@H]2[C@H](NC(=O)[C@H](C(=O)O)c3cccs3)C(=O)N2[C@H]1C(=O)O category=inactive
compound=CN(C)CCc1c[nH]c2ccc(C[C@H]3COC(=O)N3)cc12 category=inactive
compound=CNS(=O)(=O)Cc1ccc2[nH]cc(CCN(C)C)c2c1 category=inactive
compound=COc1ccc(C(=O)c2ccccc2)c(O)c1O category=inactive
compound=Cc1onc(-c2c(Cl)cccc2Cl)c1C(=O)N[C@@H]1C(=O)N2[C@@H]1SC(C)(C)[C@@H]2C(=O)O category=inactive
compound=CC(=O)NS(=O)(=O)c1ccc(NC(=O)c2ccccc2C(=O)O)cc1 category=inactive
compound=CC1(C)C=Cc2cc3ccc(=O)oc3cc2O1 category=inactive

---

Consider the following compounds and their measured normalized growth readings.
# protocol text: chemical genetic growth profiling, strain panel (AID 1159580)
# condition details: S. cerevisiae deletion strains, growth OD, locus YNL322C, strain KRE1, stronger effect = lower value
Among all 5,500 compounds or so, about 2,000 (36%) were called active. Not shown: some 18% with an inconclusive outcome. The list shows a part of the results.
endpoint name: normalized growth

sample_smiles=O=C(c1cccc([N+](=O)[O-])c1)c1cc2cc(Br)cc(Br)c2o1 endpoint_name="normalized growth" measured=0.991
sample_smiles=O=[N+]([O-])c1ccc(-c2nn[nH]n2)cc1 endpoint_name="normalized growth" measured=0.99
sample_smiles=Cc1[nH]n(C)c(=O)c1N=Nc1ccc(Cl)cc1 endpoint_name="normalized growth" measured=0.96
sample_smiles=CCN(CC)CCNC(=O)c1cc(Cl)c(N)cc1OC endpoint_name="normalized growth" measured=1.01
sample_smiles=COC(=O)CSCCc1nc(-c2ccc([N+](=O)[O-])cc2)cs1 endpoint_name="normalized growth" measured=0.965

---

# protocol text: chemical genetic growth profiling, strain panel (AID 1159580);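 note: tested at 20 µM; growth read once vehicle control cultures reached saturation at 30 °C; 1 = growth at the plate median or of vehicle wells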
# condition details: S. cerevisiae deletion strains, growth OD, locus YER167W, strain BCK2, stronger effect = lower value
Among all 5,500 compounds or so, about 2,000 (36%) were called active. Not shown: some 18% with an inconclusive outcome. The list shows a part of the results. *1 amine or outer side, *2 acyl side, *3 side chain or, on linkers, in order; H or OH if unused. Where a SMILES comes first, the peptide text is derived from it. Bridges are numbered along the chain shown (N, C = ends). [ ]: non-standard residue; d: D form. The star is where a group is joined. ξ: configuration not given here. ΔAla(E,3-NHCONH2) = NC(=O)N/C=C(/N)C(=O)O; X2 = NC1=NCCC(C(N[*:1])C(=O)[*:2])N1; ξβ3hOrn = NCCCC(N)CC(=O)*; Dap = NC[CH](N)C(=O)O
endpoint name: normalized growth

compound="C[C@]12CCC(=O)C=C1CCC1C2[C@@H](O)C[C@@]2(C)C1CC[C@]2(O)C(=O)COC(=O)CCC(=O)O (some centres not stated)" endpoint_name="normalized growth" measured=1.01
compound="CC(=O)OC1CCC2(C)C3CC(=O)C4(C)C(CC5OC6(CCC(C)CO6)[C@@H](C)C54)C3CC[C@H]2C1 (some centres not stated)" endpoint_name="normalized growth" measured=1.01
compound=CCC1(CC)C(=O)C=CNC1=O endpoint_name="normalized growth" measured=1.02
compound="NCCCC(N)CC(=O)NCC1NC(=O)C(CO)NC(=O)C(N)CNC(=O)C(C2CCN=C(N)N2)NC(=O)/C(=C\\NC(N)=O)NC1=O (stereo not drawn) (H-[Dap]S[Dap](ξβ3hOrn)[ΔAla(E,3-NHCONH2)][X2]; lactam 1-C; configuration not given here)" endpoint_name="normalized growth" measured=0.996
compound="COC1(C)CCC2OC2(C)CCC2C1CC2(C)C (configuration not stated)" endpoint_name="normalized growth" measured=0.997
compound="C[C@]12CCC(=O)C=C1CCC1C2C(=O)C[C@@]2(C)C1CC[C@]2(O)C(=O)CO (some centres not stated)" endpoint_name="normalized growth" measured=0.994
compound="CC(=O)Oc1cc2c(c(C)c1OC(C)=O)CC1OC13C2(C)CCC1(C)C2CC(C)(C(=O)O)CCC2(C)CCC13C (configuration not stated)" endpoint_name="normalized growth" measured=1.01
compound=CCN(CC)CCNC(=O)c1cc(Cl)c(N)cc1OC endpoint_name="normalized growth" measured=1.01
compound=COc1cc(-c2coc3cc(O[C@@H]4O[C@H](CO)[C@@H](O)[C@H](O)[C@H]4O)c(OC)c(O)c3c2=O)cc(O)c1OC endpoint_name="normalized growth" measured=0.993
compound=Cc1c(NC(=O)c2cccnc2)c(=O)n(-c2ccccc2)n1C endpoint_name="normalized growth" measured=1
compound="CC1(C)C(=O)[C@@H]2O[C@@H]2[C@@]2(C)C1CC(=O)[C@]1(C)C2CC[C@@]2(C)[C@H](c3ccoc3)OC(=O)[C@H]3O[C@]321 (some centres not stated)" endpoint_name="normalized growth" measured=0.991
compound="CC(=O)O[C@H]1CC[C@]2(C)C3CC[C@@]4(C)C(CC5O[C@@]6(CCC(C)CO6)[C@@H](C)C54)C3CC[C@H]2C1 (some centres not stated)" endpoint_name="normalized growth" measured=0.995

---

# protocol text: chemical genetic growth profiling, strain panel (AID 1159580);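 note: tested at 20 µM; growth read once vehicle control cultures reached saturation at 30 °C; 1 = growth at the plate median or of vehicle wells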
# condition details: S. cerevisiae deletion strains, growth OD, locus YNL307C, strain MCK1, stronger effect = lower value
Hit rate of the full screen: of about 5,500 compounds, about 2,000 (36%) were called active. About 18% were inconclusive and are not listed. This is one part of the list. *1 amine or outer side, *2 acyl side, *3 side chain or, on linkers, in order; H or OH if unused. Where a SMILES comes first, the peptide text is derived from it. Bridges are numbered along the chain shown (N, C = ends). [ ]: non-standard residue; d: D form. The star is where a group is joined. ξ: configuration not given here. ΔAla(E,3-NHCONH2) = NC(=O)N/C=C(/N)C(=O)O; X2 = NC1=NCCC(C(N[*:1])C(=O)[*:2])N1; ξβ3hOrn = NCCCC(N)CC(=O)*; Dap = NC[CH](N)C(=O)O
normalized growth vs 1: less than gives True; not less than gives False.

compound="NCCCC(N)CC(=O)NCC1NC(=O)C(CO)NC(=O)C(N)CNC(=O)C(C2CCN=C(N)N2)NC(=O)/C(=C\\NC(N)=O)NC1=O (stereo not drawn) (H-[Dap]S[Dap](ξβ3hOrn)[ΔAla(E,3-NHCONH2)][X2]; lactam 1-C; configuration not given here)" category=False
compound=CCOc1cccc(C(=O)c2ccc(O)c(O)c2O)c1 category=True
compound=COc1ccc2c(c1OC)OC[C@@H](c1ccc(OC)c(OC)c1OC)C2 category=False
compound="C#C[C@]1(O)CCC2C3CCC4=Cc5oncc5C[C@]4(C)C3CC[C@@]21C (stereo partly drawn)" category=True
compound=CN1CCN(CCCN2c3ccccc3Sc3ccc(C(F)(F)F)cc32)CC1 category=True
compound="CC(=O)O[C@H]1CC[C@]2(C)C3CC(=O)[C@]4(C)C(C(C)=O)=CCC4C3CC[C@H]2C1 (stereo partly drawn)" category=True

---

# protocol text: chemical genetic growth profiling, strain panel (AID 1159580);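 note: tested at 20 µM; growth read once vehicle control cultures reached saturation at 30 °C; 1 = growth at the plate median or of vehicle wells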
# condition details: S. cerevisiae deletion strains, growth OD, locus YBR021W, strain FUR4, stronger effect = lower value
Out of some 5,500 compounds screened, about 2,000 (36%) were called active. Roughly 18% stayed inconclusive and do not appear here. The list shows a part of the results.
Lab note: anything with normalized growth below 1 is marked Yes; values at 1 or higher are marked No.

compound=COc1c2occc2c(OC)c2c(=O)cc(C)oc12 category=Yes
compound=COc1ccc(C(=O)c2ccccc2)c(O)c1O category=Yes
compound="COc1c2c(cc3c1OCO3)C13C=C[C@H](OC)CC1N(C2)CC3O (some centres undefined)" category=No
compound="NCC1OC(OC2C(CO)OC(OC3C(O)C(N)CC(N)C3OC3OC(CO)C(O)CC3N)C2O)C(N)C(O)C1OC1OC(CO)C(O)C(O)C1O (centres undefined)" category=No
compound="C1CCC(C(CC2CCCCN2)C2CCCCC2)CC1 (centres undefined)" category=Yes
compound=CCOc1cccc(C(=O)c2ccc(O)c(O)c2O)c1 category=Yes
compound=CCOc1ccc(NC(C)=O)cc1 category=Yes
compound=Cc1onc(-c2c(Cl)cccc2Cl)c1C(=O)N[C@@H]1C(=O)N2[C@@H]1SC(C)(C)[C@@H]2C(=O)O category=No
compound=CCOC([O-])=Nc1c[n+](N2CCOCC2)no1 category=No
compound=CCOc1ccc(C(=O)c2ccc(O)c(O)c2O)cc1 category=Yes
compound=CN1CCN(CCCN2c3ccccc3Sc3ccc(C(F)(F)F)cc32)CC1 category=Yes
compound=O=c1oc2c(O)c(O)cc3c(=O)oc4c(O)c(O)cc1c4c23 category=Yes
